I'd appreciate it if you could supply IC50 values for the items below.
# Assayed System: Nucleotide-binding oligomerization domain-containing protein 2 (Homo sapiens, UniProt Q9HC29)
# Sequence (Q9HC29 whole entry, the tested form may be a part): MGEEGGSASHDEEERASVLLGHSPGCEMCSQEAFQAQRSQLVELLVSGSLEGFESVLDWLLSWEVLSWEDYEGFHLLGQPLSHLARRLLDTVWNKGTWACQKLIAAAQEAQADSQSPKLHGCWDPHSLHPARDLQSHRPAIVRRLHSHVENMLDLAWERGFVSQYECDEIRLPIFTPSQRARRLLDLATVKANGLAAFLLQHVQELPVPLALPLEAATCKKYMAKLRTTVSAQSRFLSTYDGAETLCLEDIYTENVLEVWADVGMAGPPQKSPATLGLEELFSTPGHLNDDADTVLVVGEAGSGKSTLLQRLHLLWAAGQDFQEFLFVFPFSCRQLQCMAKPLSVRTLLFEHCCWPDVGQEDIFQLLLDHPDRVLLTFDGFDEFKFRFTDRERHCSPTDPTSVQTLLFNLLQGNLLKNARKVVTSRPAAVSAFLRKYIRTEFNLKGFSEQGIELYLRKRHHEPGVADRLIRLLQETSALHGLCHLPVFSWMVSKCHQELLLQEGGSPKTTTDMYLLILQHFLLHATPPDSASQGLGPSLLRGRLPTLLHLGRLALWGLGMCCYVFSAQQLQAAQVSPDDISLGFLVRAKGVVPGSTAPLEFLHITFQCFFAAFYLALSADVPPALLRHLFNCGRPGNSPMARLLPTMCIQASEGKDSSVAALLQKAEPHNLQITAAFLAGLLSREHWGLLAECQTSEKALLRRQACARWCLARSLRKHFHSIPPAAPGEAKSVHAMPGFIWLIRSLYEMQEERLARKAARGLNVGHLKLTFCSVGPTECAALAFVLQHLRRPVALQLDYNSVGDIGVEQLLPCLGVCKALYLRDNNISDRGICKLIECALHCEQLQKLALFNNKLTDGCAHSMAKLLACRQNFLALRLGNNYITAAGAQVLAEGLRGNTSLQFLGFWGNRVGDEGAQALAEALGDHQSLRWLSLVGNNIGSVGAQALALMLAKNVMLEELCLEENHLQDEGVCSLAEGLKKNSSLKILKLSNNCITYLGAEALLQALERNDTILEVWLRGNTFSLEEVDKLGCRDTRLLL
# Assay Comment: Inhibition of NOD2 (unknown origin) expressed in HEK293T cells coexpressing NF-kappaB driven luciferase reporter gene by HTS primary assay

[
  {
    "Chemical Smiles": "C/C=C/Cn1c(SCCCc2ccccc2)nc2c1c(=O)[nH]c(=O)n2C",
    "Readout": "IC50",
    "Result": "12.7 µM"
  },
  {
    "Chemical Smiles": "Cc1ccc(S(=O)(=O)n2c(N)nc3ccccc32)cc1",
    "Readout": "IC50",
    "Result": "> 20 µM"
  }
]

Okay, next one:
Incoming: For the molecule CCCCCn1c(SCCc2ccccc2)nc2c1c(=O)[nH]c(=O)n2C , what IC50 is on record?
Outgoing: > 20 µM

Reference source for all entries: ChEMBL document CHEMBL3352342
